Biological target: T1, human CD52 (wildtype) (human, not fully specified (residue 3); also: N-linked glycan, GPI anchor)
T1 construct: also called huCD52; hCD52
T1 chain: GQNDTSQTSSPS
Experiment: flow cytometry, human CD4+ T cells from PBMC, FITC goat F(ab)2 anti-human Fc gamma secondary, GraphPad Prism fit (Example 29)
Ends that are not written are not given here.
PARAMETER: pEC50
Units for pEC50: none; it is -log10 of a concentration expressed in mol/L.

Guide cases for pEC50, answers given:
Campath-1H® (alemtuzumab) (antibody, IgG1, V domains shown, Humanized IgG1/kappa; also called C1H; C-1H; copies: 2 + 2) VH: QVQLQESGPGLVRPSQTLSLTCTVSGFTFTDFYMNWVRQPPGRGLEWIGFIRDKAKGYTTEYNPSVKGRVTMLVDTSKNQFSLRLSSVTAADTAVYYCAREGHTAAPFDYWGQGSLVTVSS VL: DIQMTQSPSSLSASVGDRVTITCKASQNIDKYLNWYQQKPGKAPKLLIYNTNNLQTGVPSRFSGSGSGTDFTFTISSLQPEDIATYYCLQHISRPRTFGQGTKVEIKR	7.66
humanized antibody 12G6-SFD1/K12 (antibody, V domains shown, also called 12G6 K12; GLD52) VH: EVQLVESGGGLVQPGGSLRLSCAASGFPFSNYWMNWVRQAPGKGLEWVGQIRLKSNNYATHYAESVKGRFTISRDDSKNSLYLQMNSLKTEDTAVYYCTPIDYWGQGTTVTVSS VL: DIVMTQTPLSLSVTPGQPASISCKSSQSLLYSNGKTYLNWVLQKPGQSPQRLIYLVSKLDSGVPDRFSGSGSGTDFTLKISRVEAEDVGVYYCVQGSHFHTFGQGTKLEIKR	7.98
humanized antibody 2C3-SFD1/K12 (antibody, V domains shown, also called 2C3 K12; 2C3 unmodified) VH: EVQLVESGGGLVQPGGSLRLSCAASGFTFNTYWMNWVRQAPGKGLEWVGQIRLKSNNYATHYAESVKGRFTISRDDSKNSLYLQMNSLKTEDTAVYYCTPVDFWGQGTTVTVSS VL: DIVMTQTPLSLSVTPGQPASISCKSSQSLLYSNGKTYLNWLLQKPGQSPQRLIYLVSKLDSGVPDRFSGSGSGTDFTLKISRVEAEDVGVYYCVQGTHLHTFGQGTRLEIKR	7.96

Next item in the queue.
Please look up its pEC50: humanized antibody 12G6-SFD1/K11 (antibody, human IgG1, V domains shown, also called 12G6 K11; 12G6 hu) VH: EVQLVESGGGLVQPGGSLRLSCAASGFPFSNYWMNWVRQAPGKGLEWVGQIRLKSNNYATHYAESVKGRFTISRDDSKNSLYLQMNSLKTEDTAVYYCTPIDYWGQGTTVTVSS VL: DIVMTQTPLSLSVTPGQPASISCKSSQSLLYSNGKTYLNWVLQKPGQSPKRLIYLVSKLDSGVPDRFSGSGSGTDFTLKISRVEAEDVGVYYCVQGSHFHTFGQGTKLEIK
8.14
